In this section we review reported NanoBRET Abs IC50 values for a set of binders.
Biological target: T1, B-cat-Halo (beta-catenin HaloTag NanoBRET construct expressed in HEK293 cells) (UniProt P35222 1-781)
T1 sequence (looked up): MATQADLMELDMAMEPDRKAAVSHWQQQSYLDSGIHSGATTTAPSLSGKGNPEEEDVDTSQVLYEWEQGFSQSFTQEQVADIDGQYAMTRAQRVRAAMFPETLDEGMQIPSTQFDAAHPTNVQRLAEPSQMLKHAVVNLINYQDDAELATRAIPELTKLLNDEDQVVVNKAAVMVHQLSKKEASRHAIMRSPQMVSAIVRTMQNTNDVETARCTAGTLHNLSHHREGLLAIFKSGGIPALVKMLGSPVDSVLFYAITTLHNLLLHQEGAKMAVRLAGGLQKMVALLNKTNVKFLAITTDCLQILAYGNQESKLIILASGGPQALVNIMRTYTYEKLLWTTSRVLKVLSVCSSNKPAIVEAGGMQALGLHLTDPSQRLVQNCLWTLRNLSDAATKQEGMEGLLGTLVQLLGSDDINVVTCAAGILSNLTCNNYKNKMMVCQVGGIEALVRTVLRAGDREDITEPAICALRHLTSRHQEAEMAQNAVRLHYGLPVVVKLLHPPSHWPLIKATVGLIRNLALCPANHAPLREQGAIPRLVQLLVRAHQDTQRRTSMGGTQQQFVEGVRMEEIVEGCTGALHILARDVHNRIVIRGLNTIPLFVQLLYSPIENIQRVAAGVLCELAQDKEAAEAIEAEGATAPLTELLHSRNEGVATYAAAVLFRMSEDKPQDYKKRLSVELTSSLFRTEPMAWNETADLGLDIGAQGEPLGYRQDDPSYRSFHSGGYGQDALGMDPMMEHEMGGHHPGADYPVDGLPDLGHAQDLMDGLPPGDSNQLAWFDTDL
Test: cell-based or functional assay
Starred links: 1 amine or outer side, 2 acyl side, 3 side chain; linkers in the order of their positions; H or OH if unused. Positions of bridges follow the written chain, without caps; N, C: chain ends. Non-standard residues stand in square brackets, D forms with d. Primed or numbered codes have the meaning given here. *: point of attachment. PyrS2″ = (S)-3-amino-1-((pent-4-en-1-yloxy)carbonyl)pyrrolidine-3-carboxylic acid (stapling residue), C=CCCCOC(=O)N1CC[C@@](N[*:1])(C(=O)[*:2])C1; B5(3) = 2,2-bis(4-pentenyl)glycine (stitching residue), C=CCCCC(CCCC=C)(N[*:1])C(=O)[*:2]; 22PhPr = 2,2-diphenylpropanoyl on Lys side chain, CC(C(=O)*)(c1ccccc1)c1ccccc1; Acetyl(4-Me-piperazin-1-yl) = CN1CCN(CC(=O)*)CC1; Bta = N[C@@H](Cc1csc2ccccc12)C(=O)O; αAllylPro = C=CC[C@@]1(C(=O)O)CCCN1; Morpholinoacetyl = O=C(CN1CCOCC1)*; tBuAla = CC(C)(C)C[C@H](N)C(=O)O; 3Thi = N[C@@H](Cc1ccsc1)C(=O)O; AdamantC = not defined here; PyrS2(4) = not defined here

- BINDER: "Ac-[αAllylPro]D[tBuAla][B5(3)]DDAAFN[PyrS2″][3Thi][Bta]QK(Acetyl(4-Me-piperazin-1-yl))-NH2 (staple 1-4, 4-11) [I-906]"
  VALUE_MODIFIER: "="
  NanoBRET Abs IC50 [µM]: 26.5
- BINDER: "Ac-[αAllylPro]D[tBuAla][B5(3)]DDAAFN[PyrS2″][3Thi][Bta]QK(22PhPr)-NH2 (staple 1-4, 4-11) [I-904]"
  VALUE_MODIFIER: "="
  NanoBRET Abs IC50 [µM]: 20
- BINDER: "Ac-[αAllylPro]D[tBuAla][B5(3)]DDAAFN[PyrS2″][3Thi][Bta]QK(Morpholinoacetyl)-NH2 (staple 1-4, 4-11) [I-905]"
  VALUE_MODIFIER: "="
  NanoBRET Abs IC50 [µM]: 31.6
- BINDER: "Ac-[αAllylPro]D[tBuAla][B5(3)]DDAK(AdamantC)FN[PyrS2(4)][3Thi][Bta]Q-NH2 (staple 1-4, 4-11; reading uncertain) [I-899]"
  VALUE_MODIFIER: ">"
  NanoBRET Abs IC50 [µM]: 20
